Where these numbers come from: patent US6596863B2

readout.label: melting point

Reference set (3 entries):
> print(dat)
                                  molecule  readout.label        endpoint.value
1  CNC(=C[N+](=O)[O-])NNc1cc(C(F)(F)F)ccn1  melting point  174 to 175 °C (dec.)
2       Cc1nn(C)c(C)c1NC(=C[N+](=O)[O-])NN  melting point  210 to 214 °C (dec.)
3        CNC(=C[N+](=O)[O-])NNc1cccc(Cl)n1  melting point         221 °C (dec.)

Prompt: Supply measured melting point of CNC(=C[N+](=O)[O-])NNc1cc(C(F)(F)F)cc(OCC2CC2)n1 in your reply.
Response: 167 °C (dec.)

Prompt: Supply measured melting point of CNC(=C[N+](=O)[O-])NNc1cc(C(F)(F)F)cc(OCCOCCOC)n1 in your reply.
Response: 128 °C

Prompt: Supply measured melting point of COc1cccc(NC(=C[N+](=O)[O-])SC)c1 [Intermediate 20] in your reply.
Response: 118 to 121 °C

Prompt: Supply measured melting point of CNC(=C[N+](=O)[O-])NN=Cc1ccc([N+](=O)[O-])cc1 in your reply.
Response: 232 °C (dec.)

Prompt: Supply measured melting point of CSC(=C[N+](=O)[O-])Nc1ccc(O)cc1 [Intermediate 12] in your reply.
Response: 193 °C (dec.)

* * *

assayed.target: human MMP-9 (gelatinase B) (Homo sapiens, UniProt P14780)
Construct: endogenous in cells; host or cells: HT1080 human fibrosarcoma cells (ATCC CCL-121), PMA-stimulated; enzyme purified from the culture supernatant
Sequence (P14780 107-707 limits assumed): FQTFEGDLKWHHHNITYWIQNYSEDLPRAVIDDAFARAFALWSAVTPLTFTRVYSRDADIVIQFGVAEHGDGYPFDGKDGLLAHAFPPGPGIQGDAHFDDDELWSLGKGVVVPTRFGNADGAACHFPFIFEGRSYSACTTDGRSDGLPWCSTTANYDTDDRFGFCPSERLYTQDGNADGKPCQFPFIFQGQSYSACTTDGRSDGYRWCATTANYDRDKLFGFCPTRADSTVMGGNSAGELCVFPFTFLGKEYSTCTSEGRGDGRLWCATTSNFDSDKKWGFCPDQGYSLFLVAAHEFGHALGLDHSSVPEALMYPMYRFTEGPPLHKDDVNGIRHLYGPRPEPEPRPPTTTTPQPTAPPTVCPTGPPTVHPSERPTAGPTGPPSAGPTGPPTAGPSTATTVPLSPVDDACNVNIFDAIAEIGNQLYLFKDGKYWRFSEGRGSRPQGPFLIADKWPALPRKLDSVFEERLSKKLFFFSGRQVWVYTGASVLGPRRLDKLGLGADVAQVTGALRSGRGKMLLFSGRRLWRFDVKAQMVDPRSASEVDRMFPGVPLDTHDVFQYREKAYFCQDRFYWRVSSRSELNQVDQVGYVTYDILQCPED
assay.info: Inhibition activity against human MMP-9 (gelatinase B), fluorescent peptide substrate
Format: biochemical
condition.details: compounds of the formula (I); 1st measurement; read-out: MMP-9 inhibition activities IC50, 1st
pIC50: −log10 of the molar value.
readout.label: pIC50

> print(dat)
                                   compound                            assayed.target  readout.label  endpoint.value
1    CNC(=C[N+](=O)[O-])NN=Cc1ccc2c(c1)OCO2  human MMP-9 (gelatinase B) (Homo sapiens, UniProt P14780)          pIC50            4.65
2      O=[N+]([O-])C=C(NNc1ccccc1)Nc1ccccc1  human MMP-9 (gelatinase B) (Homo sapiens, UniProt P14780)          pIC50            4.35
3  CCCCOc1cc(C(F)(F)F)cc(NNC(=C[N+](=O)[O-])NC)n1 [compound 177]  human MMP-9 (gelatinase B) (Homo sapiens, UniProt P14780)          pIC50            4.97
4  CNC(=C[N+](=O)[O-])NNc1nc(-c2ccccc2)nc2ccccc12  human MMP-9 (gelatinase B) (Homo sapiens, UniProt P14780)          pIC50            4.47
5        CCCOc1ccc(NC(=C[N+](=O)[O-])NN)cc1  human MMP-9 (gelatinase B) (Homo sapiens, UniProt P14780)          pIC50            4.37

P: NNC(=C[N+](=O)[O-])Nc1ccc2cn[nH]c2c1
Q: CNC(=C[N+](=O)[O-])NNc1cc(C(F)(F)F)cc(OCCOC(C)(C)C)n1
R: CNC(=C[N+](=O)[O-])NNc1ncnc2c(C)csc12
Prompt: // ascending sort on recorded pIC50 I'd appreciate it if you listed the labels in the requested order.
Response: P, Q, R

P: CNC(=C[N+](=O)[O-])NNc1cc(OC)nc(OC)n1
Q: CNC(=C[N+](=O)[O-])NNS(=O)(=O)c1cccc2ccccc12
Prompt: // which entry reports the smaller pIC50, P or Q ? Mark your selection by writing its label.
Response: P
(P: 4.42, Q: 4.83)

A: CNC(=C[N+](=O)[O-])NN=CC=Cc1ccccc1
B: NNC(=C[N+](=O)[O-])NCc1ccccn1
C: NNC(=C[N+](=O)[O-])Nc1ccccc1
Prompt: // ascending sort on recorded pIC50 I'd appreciate it if you listed the labels in the requested order.
Response: B, C, A
(B: 4.41, C: 4.69, A: 5.32)
